Test system: MES-SA uterine sarcoma cells
Type: cell-based, human
Conditions: 1 h treatment at 42° C., cells counted after 72 h; ± SEM; read-out: IC50 (42° C.)
Description: MES-SA cells were treated for 1 h at 37 or 42° C. with 5 μM Tat-ELP-GFLG-DOX (SEQ ID NO: 3); ELP-GFLG-DOX (SEQ ID NO: 3), which lacks the Tat cell penetrating peptide; or Tat-ELP-GFLG (SEQ ID NO: 3), which is not labeled with DOX. […] Cells remaining after 72 h were collected by trypsinization and counted using a Coulter counter. […] 1.8 Cytotoxicity Assay. […] Cell number was determined using a Coulter counter and expressed as a percentage of untreated cells. […]
reported metric: IC50

1. COc1cccc2c1C(=O)c1c(O)c3c(c(O)c1C2=O)C[C@@](O)(C(=O)CO)C[C@@H]3O[C@H]1C[C@H](N)[C@H](O)[C@H](C)O1 | 58 nM
